# Test system: Jingbai laying hens
# ASSAY NOTES: Breeding test B2: effect on the production performance of laying hens
# Type: in vivo
# RECORDED CONDITIONS: 150 ppm in basal daily ration, 158 days
Some compounds, each annotated with its measured EW (egg weight).
Respond numerically; units are g and should not be typed.

Recorded EW (egg weight), per entry:
# COMPOUND, MEASURED NUMBER
data = [
    ("NCC(=O)NCCCC(=O)O", 55.61),
    ("NCCCC(=O)NCCCC(=O)O", 55.24),
    ("O=C(O)CCCNC(=O)c1ccc(O)cc1 [N-p-hydroxybenzoyl-γ-aminobutyric acid]", 55.27),
    ("Nc1ccc(C(=O)NCCCC(=O)O)cc1", 55.31),
]

# evaluate next
Tell me reported EW (egg weight) for `CC(=O)NCCCC(=O)O` , tested with Jingbai laying hens.
55.24
